Cited source for all entries: paper PMC4389225

- assayText: Rat blood PK, IV and oral
- Format: in vivo
- measurementSetup: Wistar, rat, whole blood, iv, 2 mg/kg, IV 2 mg kg-1, Rat 3
endpointName: MRT
Please give the number followed by its unit.

Given `Cc1nc(Nc2ncc(N3CCN(C)[C@H](C)C3)c(Nc3cc(C)n(C)n3)n2)cc(C2CC2)c1F` , respond with its MRT. 12.6 h

====

Please provide measured Papp A→B for the entries that follow.
- assayText: Caco2 permeability
- measurementSetup: human, Caco-2
Please give the number followed by its unit.

Given `Cc1nc(Nc2ncc(N3CCN(C)[C@H](C)C3)c(Nc3cc(C)n(C)n3)n2)cc(C2CC2)c1F` , respond with its Papp A→B. 25 ×10⁻⁶ cm/s

Given `CCc1cc(Nc2ncc(N3CCN[C@H](C)C3)c(Nc3cc(C)n(C)n3)n2)nc(C)c1F.Cl.Cl` , respond with its Papp A→B. 4 ×10⁻⁶ cm/s

====

Please provide measured IC50 for the entries that follow.
- measuredTarget: Muscarinic M2 receptor (Homo sapiens, UniProt P08172)
- Construct: purchased CEREP, France (external assay service)
- Sequence (P08172 whole entry): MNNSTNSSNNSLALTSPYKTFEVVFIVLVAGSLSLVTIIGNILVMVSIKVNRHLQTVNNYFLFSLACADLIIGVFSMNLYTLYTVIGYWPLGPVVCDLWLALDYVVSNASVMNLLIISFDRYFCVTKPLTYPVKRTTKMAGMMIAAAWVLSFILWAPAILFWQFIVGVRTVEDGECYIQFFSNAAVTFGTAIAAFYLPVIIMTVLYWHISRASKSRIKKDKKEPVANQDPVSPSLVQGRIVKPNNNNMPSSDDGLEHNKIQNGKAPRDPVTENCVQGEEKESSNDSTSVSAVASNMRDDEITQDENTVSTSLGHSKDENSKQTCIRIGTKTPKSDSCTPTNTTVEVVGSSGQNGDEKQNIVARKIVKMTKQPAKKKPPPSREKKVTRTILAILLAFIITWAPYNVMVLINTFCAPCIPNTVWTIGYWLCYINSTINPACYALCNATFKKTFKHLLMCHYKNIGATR
- assayText: Muscarinic M2 receptor radioligand binding (CEREP)
- Description: An in vitro pharmacological profiling panel was specifically designed for the detection of potential high- risk clinical adverse drug reactions. […] For enzyme and kinase assays, the results were expressed as a percent inhibition of control-specific activity obtained in the presence of the test compound. […] For radioligand binding assays, the results are expressed as % inhibition of control-specific binding obtained in the presence of the test compounds. […]
Please give the number followed by its unit.

Given `CCc1cc(Nc2ncc(N3CCN[C@H](C)C3)c(Nc3cc(C)n(C)n3)n2)nc(C)c1F.Cl.Cl` , respond with its IC50. 3100 nM

Given `Cc1cc(Nc2ncc(N3CCN(C)CC3)c(N3CCCC3)n2)ccn1` , respond with its IC50. 1600 nM

Given `Cc1nc(Nc2ncc(N3CCN(C)[C@H](C)C3)c(Nc3cc(C)n(C)n3)n2)cc(C2CC2)c1F` , respond with its IC50. 2000 nM

====

- Test system: Dd2-DHODH
- assayText: SYBR green growth assay, Dd2-DHODH mutant
- Format: cell-based, P. falciparum
- measurementSetup: Plasmodium falciparum, DD2
endpointName: IC50
Please give the number followed by its unit.

Fetch value of IC50 on Dd2-DHODH for `CNc1nc(Nc2ccc(OCC(F)(F)F)c(C)n2)ncc1N1CCN[C@H](C)C1` . 0.0232 µM

Fetch value of IC50 on Dd2-DHODH for `CCN(CC)Cc1cc(Nc2ccnc3cc(Cl)ccc23)ccc1O` . 0.0107 µM

Fetch value of IC50 on Dd2-DHODH for `COC1=C2C[C@@H](C)C[C@H](OC)[C@H](O)[C@@H](C)/C=C(\C)[C@H](OC(N)=O)[C@@H](OC)/C=C\C=C(/C)C(=O)NC(=CC1=O)C2=O` . 0.257 µM

Fetch value of IC50 on Dd2-DHODH for C[C@H]1[C@H](OC(=O)CCC(=O)O)O[C@@H]2O[C@@]3(C)CC[C@H]4[C@H](C)CC[C@@H]1[C@@]24OO3 [Artesunate] . 0.00181 µM

====

- assayText: Rat blood PK, IV and oral
- Assay type: in vivo
- measurementSetup: Wistar, rat, whole blood, po, 10 mg/kg, Oral 10 mg kg-1, Rat 3; read-out: F
endpointName: bioavailability (%)
Write the answer as a number in %, unit excluded.

Given Cc1nc(Nc2ncc(N3CCN(C)[C@H](C)C3)c(Nc3cc(C)n(C)n3)n2)cc(C2CC2)c1F [compound 12] , respond with its bioavailability. 96
